Tgt: BRAF V600E (Homo sapiens, UniProt P15056+Q96SW2, V600E)
Construct: knock-in of the HiBiT tag to the endogenous BRAF V600E locus; host or cells: A375.10 (A375 clonal line, CRISPR HiBiT knock-in at the endogenous BRAF V600E locus)
Sequence (P15056 whole entry V600E): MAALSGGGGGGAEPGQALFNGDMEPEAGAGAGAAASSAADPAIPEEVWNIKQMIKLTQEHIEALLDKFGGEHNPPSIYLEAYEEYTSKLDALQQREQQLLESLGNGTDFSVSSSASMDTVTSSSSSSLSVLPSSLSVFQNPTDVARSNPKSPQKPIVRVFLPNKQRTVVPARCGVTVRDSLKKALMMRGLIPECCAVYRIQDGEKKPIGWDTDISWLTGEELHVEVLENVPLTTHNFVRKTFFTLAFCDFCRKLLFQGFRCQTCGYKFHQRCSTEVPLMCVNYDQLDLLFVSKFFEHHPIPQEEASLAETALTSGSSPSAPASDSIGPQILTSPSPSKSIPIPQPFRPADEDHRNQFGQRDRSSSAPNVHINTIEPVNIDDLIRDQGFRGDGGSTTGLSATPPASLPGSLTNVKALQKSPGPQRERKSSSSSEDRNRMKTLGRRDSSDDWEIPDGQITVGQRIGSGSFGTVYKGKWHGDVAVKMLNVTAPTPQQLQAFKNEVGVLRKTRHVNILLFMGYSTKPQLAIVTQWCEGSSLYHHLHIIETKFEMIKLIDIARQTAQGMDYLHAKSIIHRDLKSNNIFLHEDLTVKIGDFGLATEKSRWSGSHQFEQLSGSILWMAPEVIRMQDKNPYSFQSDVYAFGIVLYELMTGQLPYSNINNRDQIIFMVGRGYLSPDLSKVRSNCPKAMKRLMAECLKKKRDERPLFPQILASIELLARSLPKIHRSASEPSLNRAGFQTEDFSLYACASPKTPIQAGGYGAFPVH
Sequence (Q96SW2 whole entry): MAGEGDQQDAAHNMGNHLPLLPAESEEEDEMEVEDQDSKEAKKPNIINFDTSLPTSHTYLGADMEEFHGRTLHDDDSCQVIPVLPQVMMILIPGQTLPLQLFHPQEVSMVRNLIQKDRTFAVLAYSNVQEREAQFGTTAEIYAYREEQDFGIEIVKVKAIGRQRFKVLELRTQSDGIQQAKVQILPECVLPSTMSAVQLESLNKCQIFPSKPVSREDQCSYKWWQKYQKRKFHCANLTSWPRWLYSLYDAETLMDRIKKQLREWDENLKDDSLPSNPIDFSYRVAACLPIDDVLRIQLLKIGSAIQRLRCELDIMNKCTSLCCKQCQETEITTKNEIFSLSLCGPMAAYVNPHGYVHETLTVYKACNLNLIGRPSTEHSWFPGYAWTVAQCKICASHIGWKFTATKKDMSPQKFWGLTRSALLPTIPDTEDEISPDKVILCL
Sequence (Q16531 whole entry partner): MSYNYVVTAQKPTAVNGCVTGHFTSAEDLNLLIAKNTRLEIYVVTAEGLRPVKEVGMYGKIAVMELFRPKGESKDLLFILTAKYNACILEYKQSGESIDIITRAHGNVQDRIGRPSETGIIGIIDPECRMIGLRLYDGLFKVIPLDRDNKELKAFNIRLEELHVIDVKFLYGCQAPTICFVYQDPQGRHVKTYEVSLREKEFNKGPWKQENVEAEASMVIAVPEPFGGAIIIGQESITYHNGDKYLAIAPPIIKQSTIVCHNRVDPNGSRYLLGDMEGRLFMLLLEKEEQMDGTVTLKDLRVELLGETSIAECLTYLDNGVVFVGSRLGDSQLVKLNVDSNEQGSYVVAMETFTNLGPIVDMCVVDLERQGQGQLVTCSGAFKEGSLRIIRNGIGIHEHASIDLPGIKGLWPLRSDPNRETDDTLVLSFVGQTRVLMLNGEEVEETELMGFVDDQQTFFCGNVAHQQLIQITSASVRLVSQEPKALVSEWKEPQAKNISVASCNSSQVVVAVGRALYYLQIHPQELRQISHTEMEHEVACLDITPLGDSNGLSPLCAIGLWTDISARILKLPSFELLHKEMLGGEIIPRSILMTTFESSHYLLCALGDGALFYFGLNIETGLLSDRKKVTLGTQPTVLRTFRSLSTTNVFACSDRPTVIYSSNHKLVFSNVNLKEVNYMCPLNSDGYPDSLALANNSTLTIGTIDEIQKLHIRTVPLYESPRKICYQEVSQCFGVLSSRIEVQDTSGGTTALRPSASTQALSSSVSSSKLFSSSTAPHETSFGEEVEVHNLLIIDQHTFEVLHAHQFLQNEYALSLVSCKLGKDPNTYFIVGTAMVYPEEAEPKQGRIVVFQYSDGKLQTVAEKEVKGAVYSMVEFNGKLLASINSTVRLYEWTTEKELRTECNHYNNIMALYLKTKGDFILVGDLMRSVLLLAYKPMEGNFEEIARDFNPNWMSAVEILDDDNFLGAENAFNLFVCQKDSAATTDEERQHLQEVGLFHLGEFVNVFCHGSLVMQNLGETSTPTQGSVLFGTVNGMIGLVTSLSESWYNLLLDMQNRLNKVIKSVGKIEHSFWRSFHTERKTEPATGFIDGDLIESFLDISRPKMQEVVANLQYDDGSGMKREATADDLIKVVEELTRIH
Method summary: BRAF V600E HiBiT Degradation Assay
Format: cell-based
Condition details: read-out: HiBiT-Degradation A375.10 BRAF 2 hours DC50; A375.10 cells, BRAF V600E, 2 hours
Readout type: DC50

Answered examples (2):
CC(C)S(=O)(=O)Nc1ccc(F)c(Oc2ccc3ncc(C4CC5(CCN(C6CC7(C6)CN(c6cc8c(cc6F)c(N6CCC(=O)NC6=O)nn8C)C7)CC5)C4)nc3c2)c1C#N (centres unmarked)    < 1000 nM
Cn1nc(N2CCC(=O)NC2=O)c2cc(F)c(N3CC4(CC(N5CCC6(CC5)CC(c5cnc7ccc(Oc8c(F)ccc(NS(=O)(=O)C9CCCC9)c8C#N)cc7n5)C6)C4)C3)cc21    < 1000 nM

# input compound: `CO[C@@H]1CCN(S(=O)(=O)Nc2ccc(F)c(Oc3ccc4ncn([C@H]5COC6(CCN(C7CC8(C7)CN(c7cc9c(cc7F)c(N7CCC(=O)NC7=O)nn9C)C8)CC6)C5)c(=O)c4c3)c2C#N)C1` ; wanted: its DC50
1000 to 10000 nM

# input compound: CCN(C)S(=O)(=O)Nc1ccc(F)c(Oc2ccc3ncn([C@H]4COC5(CCN(C6CC(c7cc8c(cc7F)c(N7CCC(=O)NC7=O)nn8C)C6)CC5)C4)c(=O)c3c2)c1C#N (single isomer, unassigned) ; wanted: its DC50
< 1000 nM

# input compound: `COC1CN(S(=O)(=O)Nc2ccc(F)c(Oc3ccc4ncn([C@H]5COC6(CCN(C7CC8(C7)CN(c7cc9c(cc7F)c(N7CCC(=O)NC7=O)nn9C)C8)CC6)C5)c(=O)c4c3)c2C#N)C1` ; wanted: its DC50
1000 to 10000 nM
